Recorded values, source PubChem BioAssay (NCATS).

tested on: P94_40; experiment: qHTS profiling for inhibitors of Plasmodium falciparum proliferation (AID 504749); also: nearly all actives have a fitted effect of over 60% in size; conditions: P. falciparum in erythrocytes, SYBR Green DNA, 72 h; series mostly up to 28.7 µM
Results filed as inconclusive are left out. Calls of active or inactive are those of the source. Calls follow the shape of the dose curve; as a rule, active = well fitted inhibition curve with a large enough effect; inconclusive = small, poorly fitted or top-dose-only effect; inactive = flat fitted curve, though single readings scatter.
Bench note: report the call from active, inactive

Problem: Per the records of this test, what outcome belongs to `O=C(O)CCCCCCCC(=O)O` ?
Result: inactive

Problem: // outcome(item) with item = `CCCOc1ccccc1-c1nc2n[nH]nc2c(=O)[nH]1`
Result: inactive

Problem: Short answer needed: outcome of this test for `COC(=O)[C@@H](N)Cc1ccc(O)c(O)c1` ?
Result: inactive

Problem: Outcome logged for `CC(C)(C)c1ccc(C(=O)CCCN2CCC(OC(c3ccccc3)c3ccccc3)CC2)cc1` in this assay:
Result: active

Problem: Would you mind telling me which call this test gave `CC(C)NNC(=O)c1ccncc1` ?
Result: inactive

Problem: Please indicate how the test categorized `CC(C)(Oc1ccc(CCNC(=O)c2ccc(Cl)cc2)cc1)C(=O)O` .
Result: inactive
